Values were extracted from patent US20230286973A1.

Test system: TNFα-FL/Gaussia Luciferase
test-method-notes: Dox Induced TNFα-FL-Gluc Assay
Assay type: cell-based
study-conditions: ratio of TNFaFLGluc IC50 to PD1ssGluc IC50
Excerpt: Flp-In 293 T-REx™ cells were transfected with pcDNA™5/FRT/TO plasmid inserted with cDNA encoding Gaussia Luciferase fused to the 3′ end of cDNA encoding full length TNFα (amino acids 1-233). Transfected cells were selected for resistance to the selectable markers Hygromycin and Blasticidin to create a stable cell line that contained the TNFα-FL/Gaussia Luciferase cDNA insert whose expression was regulated under the T-REx™ system. […]
readout-kind: 24 hr Dox Inducible TNFaFLGluc 293FRT/TO: TNF/PD1
Quick one: just the number, no unit, thanks!

COC(=O)Nc1ccc(N2CCC[C@@H]2c2csc(NC(=O)c3cc(C)cn3Cc3ccnc(F)c3)n2)nc1 [Compound A180]    440.37
CN(C)c1ccc(N2CCC[C@@H]2c2csc(NC(=O)c3cccn3Cc3ccncc3)n2)cc1 [Compound A16]    25
O=C(Nc1nc([C@H]2CCCN2c2ccc(O[C@H]3CCOC3)cc2)cs1)c1cccn1Cc1ccncc1 [Compound A4]    9.69

Attention now turns to another entry.
Documented 24 hr Dox Inducible TNFaFLGluc 293FRT/TO: TNF/PD1 of O=C(Nc1nc(-c2ccccc2-c2ccccn2)cs1)c1cccn1Cc1ccnc(F)c1 [Compound A168] : 16.3
